Values from paper PMC4336329

# target-or-system: human ether-à-go-go-related gene (hERG) potassium channel (human);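 note: peak tail current of the secondary pulse compared with the same well before compound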
# Sequence (Q12809 whole entry, looked up): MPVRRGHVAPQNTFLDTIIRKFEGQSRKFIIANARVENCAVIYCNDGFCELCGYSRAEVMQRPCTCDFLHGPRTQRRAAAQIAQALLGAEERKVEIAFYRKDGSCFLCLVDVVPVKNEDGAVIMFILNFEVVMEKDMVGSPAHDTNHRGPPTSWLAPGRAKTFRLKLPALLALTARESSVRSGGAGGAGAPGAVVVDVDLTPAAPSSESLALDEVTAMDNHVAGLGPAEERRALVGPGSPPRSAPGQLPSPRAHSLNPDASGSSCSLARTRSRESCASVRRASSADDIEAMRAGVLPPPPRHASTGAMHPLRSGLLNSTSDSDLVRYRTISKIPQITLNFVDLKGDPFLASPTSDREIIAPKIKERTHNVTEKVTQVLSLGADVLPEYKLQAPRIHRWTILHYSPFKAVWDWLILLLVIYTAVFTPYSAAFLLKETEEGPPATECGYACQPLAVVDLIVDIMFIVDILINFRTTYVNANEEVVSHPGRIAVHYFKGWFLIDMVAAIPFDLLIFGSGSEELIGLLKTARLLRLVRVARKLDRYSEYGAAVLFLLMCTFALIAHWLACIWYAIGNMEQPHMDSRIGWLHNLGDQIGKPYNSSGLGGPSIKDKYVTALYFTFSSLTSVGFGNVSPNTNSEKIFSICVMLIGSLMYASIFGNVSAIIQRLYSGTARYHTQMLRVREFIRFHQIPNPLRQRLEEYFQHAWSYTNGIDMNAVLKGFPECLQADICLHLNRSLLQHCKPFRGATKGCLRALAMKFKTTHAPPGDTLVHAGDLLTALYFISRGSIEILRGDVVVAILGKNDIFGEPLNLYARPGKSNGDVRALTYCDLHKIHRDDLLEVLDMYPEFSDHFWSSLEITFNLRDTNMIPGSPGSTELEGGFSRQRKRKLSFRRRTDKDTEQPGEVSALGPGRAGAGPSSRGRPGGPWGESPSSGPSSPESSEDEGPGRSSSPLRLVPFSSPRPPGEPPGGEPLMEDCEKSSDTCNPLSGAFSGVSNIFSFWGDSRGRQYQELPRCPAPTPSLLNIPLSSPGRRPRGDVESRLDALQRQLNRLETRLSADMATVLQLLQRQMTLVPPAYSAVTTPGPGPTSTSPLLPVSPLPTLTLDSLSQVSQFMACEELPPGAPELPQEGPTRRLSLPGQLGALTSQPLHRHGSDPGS
# procedure-details: primary screen, population patch clamp on CHO cells stably expressing hERG; higher = less effect of the substance
The campaign covered roughly 310,000 compounds. About 14,000 (4.5%) showed an effect of 50% or more. Effects have a minus sign here. Many of the other results were omitted from the sample, so strong results are more common in it than they were.
experimental-endpoint: hERG current change (%, negative = inhibition) at 10uM (%)
Answer format: numeric, % implied, no suffix.

CCc1ccccc1NC(=O)c1cc(-c2cccc(O)c2)on1 = 12.7
CCOC(=O)C1CCCN(Cc2ccc(OCc3ccccc3)cc2)C1.O=C(O)C(=O)O (stereo not shown) = -40.6
COc1cc(CC(=O)N(C)CC(=O)Nc2cc(C)ccc2C)cc(OC)c1OC = 11
CC(=O)N1CSCC1C(=O)NNS(=O)(=O)c1cccc(C(F)(F)F)c1 (stereo not shown) = 8.58
O=C(Nc1ccc(S(=O)(=O)NCC2CCCO2)cc1)c1ccccc1 (stereo not shown) = 2.19

Req: Data request, read-out hERG current change (%, negative = inhibition) at 10uM, for O=C(N/N=C/c1cccc([N+](=O)[O-])c1)C1CC(=O)N(c2ccc(Br)cc2)C1 (stereo not shown)
Resp: -46.6

Req: Report hERG current change (%, negative = inhibition) at 10uM for O=C(N/N=C/c1cccc(Br)c1)C1CC(=O)N(c2ccccc2)C1 (stereo not shown) please.
Resp: 7.68

Req: I am curious: what hERG current change (%, negative = inhibition) at 10uM value has been reported for Cc1ccc(NCC(=O)N/N=C/c2c[nH]c3ccccc23)cc1 ?
Resp: 11.4

Req: Which hERG current change (%, negative = inhibition) at 10uM value belongs to O=C(COc1ccc(F)cc1)Nc1cc(S(=O)(=O)N2CCCCC2)ccc1N1CCCCC1 ?
Resp: 9.98

Req: Item CN1CCN(c2ccc(S(=O)(=O)N3CCCCC3)cc2NC(=O)COc2ccc([N+](=O)[O-])cc2)CC1 has what recorded hERG current change (%, negative = inhibition) at 10uM?
Resp: -34.3

====

# target-or-system: human ether-à-go-go-related gene (hERG) potassium channel (human);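 note: peak tail current of the secondary pulse compared with the same well before compound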
# procedure-details: primary screen, population patch clamp on CHO cells stably expressing hERG; higher = less effect of the substance
About 14,000 (4.5%) of roughly 310,000 compounds showed an effect of 50% or more. The effect is printed as a negative number. The list comes from a sample in which strong results are over-represented; it also holds close analogues and randomly drawn compounds.
experimental-endpoint: hERG current change (%, negative = inhibition) at 10uM (%)
Report the figure in % without appending any unit label.

Field: example entries. Status: answers known.
Cc1ccc(NS(=O)(=O)c2ccc3[nH]c(=O)[nH]c3c2)cc1 = 21
O=C(c1ccccc1)N1N=C(c2ccccc2O)CC1c1ccccc1 (stereo not drawn) = 6.88
COc1ccc(CCNC2CCCCCC2)cc1 = -4.62
O=C(Nc1nc2ccc(S(=O)(=O)N3CCCC3)cc2s1)C1CCCCC1 = 4.81
O=C1CN(C(=O)c2ccc(Br)o2)C(c2ccccc2)c2cc(F)ccc2N1 (stereo not drawn) = -45.3

Next item in the queue.
Req: Query (compound): O=C(O)CC1SC(N/N=C/c2ccc(Br)cc2)NC1=O (stereo not drawn) ; field requested: hERG current change (%, negative = inhibition) at 10uM
Resp: 6.6
